Cited source for all entries: PubChem BioAssay (NCI)

Experiment: NCI Yeast Anticancer Drug Screen. Data for the rad50 strain (AID 155)
Conditions: S. cerevisiae rad50 strain growth inhibition; at 50.0 µM; active compounds read high
About 79,000 compounds went through this panel and 15% of them were active in at least one assay; those are over-represented in the sample as a whole.
growth inhibition vs 10%: at or above is satisfied, below is not satisfied.

Reference set (6 entries):
CCSC(COC(C)=O)(SCC)C(OC(C)=O)C(OC(C)=O)C(COC(C)=O)OC(C)=O (stereo not given) :: satisfied
CN(C)C/C=C(/c1ccc(Br)cc1)c1cccnc1 :: not satisfied
O=S(=O)(O)c1cc(O)ccc1O.O=S(=O)(O)c1cc(O)ccc1O.[NH-]C1CCCCC1[NH-].[Pt+2] :: satisfied
CN(CN(C)/N=C/c1ccc(Cl)cc1)/N=C/c1ccc(Cl)cc1 :: not satisfied
CCCCn1c(=O)cc(C(=O)O)c2ccccc21 :: not satisfied
CCOC(=O)c1ccccc1OC(=O)Oc1ccccc1C(=O)OCC :: satisfied

Prompt: I'd appreciate it if you could say whether CCN(CC)C(=O)CCC1CCCCC1 has growth inhibition at least equal to 10%.
Response: not satisfied

Prompt: Does O=C(NNC(O)C(F)(F)F)c1ccccc1 (stereo not given) have a reported growth inhibition of at least 10%?
Response: satisfied

Prompt: Hello, I need to know if COc1ccc(C(O)C2c3c(cc4c(c3OC)OCO4)CCN2C)c(CO)c1OC (stereo not given) has measured growth inhibition not below 10%. Thanks!
Response: satisfied

Prompt: Is growth inhibition at least 10%? Consider CC1OC(CO)C2OC(C)OCC2O1 (stereo not given)
Response: not satisfied

Prompt: Would you say COc1cc(NCCNCC(C)(C)C)c2ncccc2c1 shows growth inhibition at minimum 10%?
Response: satisfied

Prompt: Assess whether reported growth inhibition for COc1cccc2c1C(=N)c1c(O)c3c(c(O)c1C2=O)C[C@@](O)(C(C)=O)C[C@@H]3OC1CC(N)C(O)C(C)O1 (stereo not given in full) sits at 10% or higher.
Response: satisfied

Prompt: Is growth inhibition for CC12CC(=O)Nc3ccccc3N1C(c1ccccc1)=NO2 (stereo not given) at or above 10%?
Response: not satisfied

Prompt: Item COc1cc2c(cc1OC)C(Cc1ccccc1CCCl)=NCC2 with growth inhibition of 10% or above?
Response: satisfied

Prompt: Kindly determine if growth inhibition recorded for O=C(O)CNC(=O)CNC(=O)c1ccc2ccccc2n1 is above or exactly 10%.
Response: not satisfied
